# Assay target: Cannabinoid receptor 2 (Homo sapiens, UniProt P34972)
# Measurement description: Inhibition constant against Cannabinoid receptor 2
pKi: −log10 of the molar value.
Mark true (1) for reported pKi of 8 or greater; mark false (0) for anything smaller.

These recorded examples may help you get a feel for the data.
CCC(c1ccc([C@H](C)NS(C)(=O)=O)cc1)c1ccc(Cl)cc1S(=O)(=O)c1ccc(Cl)cc1 (some centres not stated) :: false (0)
C[C@H](NS(C)(=O)=O)c1ccc(S(=O)(=O)c2ccc(Cl)cc2S(=O)(=O)c2ccccc2OC(F)(F)F)cc1 :: false (0)
C[C@H](NS(C)(=O)=O)c1ccc(S(=O)(=O)c2ccc(Cl)cc2C(C)(O)c2ccccc2F)cc1 (some centres not stated) :: false (0)
C=C(c1ccccc1F)c1cc(Cl)ccc1S(=O)(=O)c1ccc([C@H](C)NS(C)(=O)=O)cc1 :: false (0)
C[C@H](NS(C)(=O)=O)c1ccc(S(=O)(=O)c2ccc(Cl)cc2S(=O)(=O)c2ccccc2)cc1 :: true (1)

Reported pKi at or above 8? COc1ccc(S(=O)(=O)c2cc(OC)ccc2S(=O)(=O)c2ccc([C@H](C)NS(C)(=O)=O)cc2)cc1 true (1)

Reported pKi at or above 8? C[C@H](NS(C)(=O)=O)c1ccc(Cc2ccc(C(F)(F)F)cc2S(=O)(=O)c2cccc(F)c2)cc1 true (1)

---

# Assay target: Cannabinoid receptor (Homo sapiens) (UniProt P34972+P21554)
# Sequence (P21554 whole entry, looked up): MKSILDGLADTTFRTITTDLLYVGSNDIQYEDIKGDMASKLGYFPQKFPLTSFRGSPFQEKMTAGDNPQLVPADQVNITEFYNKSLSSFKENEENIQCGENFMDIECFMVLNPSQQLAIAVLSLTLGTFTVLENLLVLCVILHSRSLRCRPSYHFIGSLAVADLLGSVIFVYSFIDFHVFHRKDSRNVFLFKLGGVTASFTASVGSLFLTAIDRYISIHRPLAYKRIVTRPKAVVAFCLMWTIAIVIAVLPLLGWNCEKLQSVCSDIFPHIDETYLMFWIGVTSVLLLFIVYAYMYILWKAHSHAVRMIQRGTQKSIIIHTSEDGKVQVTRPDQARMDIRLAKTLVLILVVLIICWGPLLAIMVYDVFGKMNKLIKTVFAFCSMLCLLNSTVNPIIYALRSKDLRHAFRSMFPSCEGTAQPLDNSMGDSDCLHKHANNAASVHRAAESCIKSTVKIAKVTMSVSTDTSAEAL
# Sequence (P34972 whole entry, looked up): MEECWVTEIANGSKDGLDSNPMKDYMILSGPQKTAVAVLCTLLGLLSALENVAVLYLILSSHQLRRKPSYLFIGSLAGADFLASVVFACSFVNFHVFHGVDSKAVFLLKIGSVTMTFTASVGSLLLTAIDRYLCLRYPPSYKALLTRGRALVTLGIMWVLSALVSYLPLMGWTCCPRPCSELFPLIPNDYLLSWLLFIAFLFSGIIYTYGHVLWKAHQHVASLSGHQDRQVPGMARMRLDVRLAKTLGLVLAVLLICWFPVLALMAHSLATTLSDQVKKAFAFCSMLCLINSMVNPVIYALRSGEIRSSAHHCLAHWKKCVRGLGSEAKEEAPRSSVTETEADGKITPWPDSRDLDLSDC
# Measurement description: Ratio of inhibition against Cannabinoid receptor 1 and Cannabinoid receptor 2
# Assay type: protein assay
Metric: Selectivity
// no unit, no text: just the number

C[C@H](NS(C)(=O)=O)c1ccc(S(=O)(=O)c2ccc(Cl)cc2C(C)(O)c2ccccc2F)cc1 (stereo partly drawn) :: 111
C[C@H](NS(C)(=O)=O)c1ccc(S(=O)(=O)c2ccc(Cl)cc2C(C)(O)c2ccc(Cl)cc2)cc1 (stereo partly drawn) :: 25
COc1ccc(S(=O)(=O)c2cc(OC)ccc2Cc2ccc([C@H](C)NS(C)(=O)=O)cc2)cc1 :: 1300
C[C@H](NS(C)(=O)=O)c1ccc(S(=O)(=O)c2ccc(C(F)(F)F)cc2S(=O)(=O)c2ccccc2F)cc1 :: 3550
C[C@H](NS(C)(=O)=O)c1ccc(Cc2ccc(C(F)(F)F)cc2S(=O)(=O)c2c(F)cccc2F)cc1 :: 584

Entry under test: COc1ccc(S(=O)(=O)c2ccc([C@H](C)NS(C)(=O)=O)cc2)c(S(=O)(=O)c2ccccc2)c1 . Its Selectivity was 2480

Entry under test: C[C@H](NS(C)(=O)=O)c1ccc(Cc2ccc(C(F)(F)F)cc2S(=O)(=O)c2cccc(F)c2)cc1 . Its Selectivity was 438

Entry under test: CCC(c1ccc([C@H](C)NS(C)(=O)=O)cc1)c1ccc(Cl)cc1S(=O)(=O)c1ccc(Cl)cc1 (stereo partly drawn) . Its Selectivity was 48

---

# Assay target: Cannabinoid receptor (Homo sapiens) (UniProt P34972+P21554)
# Measurement description: Ratio of inhibition against Cannabinoid receptor 1 and Cannabinoid receptor 2
# Assay type: protein assay
Metric: Selectivity

Guide cases for Selectivity, answers given:
COc1ccc(S(=O)(=O)c2cc(OC)ccc2S(=O)(=O)c2ccc(CNS(C)(=O)=O)cc2)cc1 :: 2170
C[C@H](NS(C)(=O)=O)c1ccc(S(=O)(=O)c2ccc(Cl)cc2S(=O)(=O)c2ccccc2F)cc1 :: 4390
C[C@H](NS(C)(=O)=O)c1ccc(S(=O)(=O)c2ccc(OC3CCCC3)cc2S(=O)(=O)c2ccc(Cl)cc2)cc1 :: 11
C[C@H](NS(C)(=O)=O)c1ccc(S(=O)(=O)c2ccc(Cl)cc2S(=O)(=O)c2cccc(Cl)c2)cc1 :: 238

Entry under test: CC(NS(C)(=O)=O)c1ccc(C(=O)c2ccc(Cl)cc2S(=O)(=O)c2ccc(Cl)cc2)cc1 (stereo unspecified) . Its Selectivity was 16

Entry under test: C[C@H](NS(C)(=O)=O)c1ccc(S(=O)(=O)c2ccc(O)cc2S(=O)(=O)c2ccc(Cl)cc2)cc1 . Its Selectivity was 2320

Entry under test: C[C@H](NS(C)(=O)=O)c1ccc(Cc2ccc(Cl)cc2S(=O)(=O)c2ccc(Cl)cc2)cc1 . Its Selectivity was 188

Entry under test: COc1ccc(S(=O)(=O)c2cc(OC)ccc2S(=O)(=O)c2ccc(C(C)(C)NS(C)(=O)=O)cc2)cc1 . Its Selectivity was 282

Entry under test: C[C@H](NS(C)(=O)=O)c1ccc(S(=O)(=O)c2ccc(Cl)cc2Oc2ccc(Cl)cc2)cc1 . Its Selectivity was 3

Entry under test: C[C@H](NS(C)(=O)=O)c1ccc(S(=O)(=O)c2ccc(Cl)cc2S(=O)(=O)c2ccccc2Cl)cc1 . Its Selectivity was 1780

Entry under test: Cc1ccc(S(=O)(=O)c2ccc([C@H](C)NS(C)(=O)=O)cc2)c(S(=O)(=O)c2ccccc2F)c1 . Its Selectivity was 1740

Entry under test: C[C@H](NS(C)(=O)=O)c1ccc(S(=O)(=O)c2ccc(Cl)cc2S(=O)(=O)c2ccc(Cl)cc2)cc1 . Its Selectivity was 687

Entry under test: C=C(c1ccc([C@H](C)NS(C)(=O)=O)cc1)c1ccc(OC(F)(F)F)cc1S(=O)(=O)c1ccccc1F . Its Selectivity was 19

Entry under test: C[C@H](NS(C)(=O)=O)c1ccc(Cc2ccc(OC(F)(F)F)cc2S(=O)(=O)c2ccccc2OC(F)(F)F)cc1 . Its Selectivity was 60

Entry under test: C[C@H](NS(C)(=O)=O)c1ccc(S(=O)(=O)c2ccc(Cl)cc2S(=O)(=O)c2ccccc2OC(F)(F)F)cc1 . Its Selectivity was 134

Entry under test: C=C(c1ccccc1F)c1cc(Cl)ccc1S(=O)(=O)c1ccc([C@H](C)NS(C)(=O)=O)cc1 . Its Selectivity was 17

---

# Assay target: Cannabinoid receptor (Homo sapiens) (UniProt P34972+P21554)
# Measurement description: Ratio of inhibition against Cannabinoid receptor 1 and Cannabinoid receptor 2
# Type: protein assay
Listed compounds paired with reported Selectivity
// no unit, no text: just the number

Guide cases for Selectivity, answers given:
C[C@H](NS(C)(=O)=O)c1ccc(S(=O)(=O)c2ccc(C(F)(F)F)cc2S(=O)(=O)c2ccc(Cl)cc2)cc1 :: 558
COc1ccc(S(=O)(=O)c2cc(OC)ccc2C(=O)c2ccc([C@H](C)NS(C)(=O)=O)cc2)cc1 :: 108
COc1ccc(S(=O)(=O)c2cc(OC)ccc2S(=O)(=O)c2ccc([C@H](C)NS(C)(=O)=O)cc2)cc1 :: 2260
C[C@H](NS(C)(=O)=O)c1ccc(S(=O)(=O)c2ccccc2S(=O)(=O)c2ccc(Cl)cc2)cc1 :: 127
CO/N=C(\c1ccc([C@H](C)NS(C)(=O)=O)cc1)c1ccc(Cl)cc1S(=O)(=O)c1ccc(Cl)cc1 :: 5

Noted Selectivity for C[C@H](NS(C)(=O)=O)c1ccc(Cc2ccc(OC(F)(F)F)cc2S(=O)(=O)c2ccccc2F)cc1 , tested on Cannabinoid receptor (Homo sapiens) (UniProt P34972+P21554): 1180

Noted Selectivity for C[C@H](NS(C)(=O)=O)c1ccc(S(=O)(=O)c2ccc(Cl)cc2S(=O)(=O)c2ccccc2)cc1 , tested on Cannabinoid receptor (Homo sapiens) (UniProt P34972+P21554): 1940

Noted Selectivity for COc1ccc(S(=O)(=O)c2cc(OC)ccc2S(=O)(=O)c2ccc([C@@H](C)NS(C)(=O)=O)cc2)cc1 , tested on Cannabinoid receptor (Homo sapiens) (UniProt P34972+P21554): 105

---

Listed compounds paired with reported Selectivity
# Assay target: Cannabinoid receptor (Homo sapiens) (UniProt P34972+P21554)
# Measurement description: Ratio of inhibition against Cannabinoid receptor 1 and Cannabinoid receptor 2
# Assay type: protein assay
// no unit, no text: just the number

Entry under test: C[C@H](NS(C)(=O)=O)c1ccc(S(=O)(=O)c2ccc(Cl)cc2Nc2ccc(Cl)cc2)cc1 . Its Selectivity was 5

Entry under test: C[C@H](NS(C)(=O)=O)c1ccc(Cc2ccc(C(F)(F)F)cc2S(=O)(=O)c2ccccc2F)cc1 . Its Selectivity was 674

Entry under test: C[C@H](NS(C)(=O)=O)c1ccc(S(=O)(=O)c2ccc(Cl)cc2Cc2ccc(Cl)cc2)cc1 . Its Selectivity was 11

Entry under test: CC(NS(C)(=O)=O)c1ccc(C(=O)c2ccc(OC(F)(F)F)cc2S(=O)(=O)c2ccccc2F)cc1 (centres undefined) . Its Selectivity was 28

---

# Assay target: Cannabinoid receptor 2 (Homo sapiens)
Metric: log10 of Ki (log10 of the value in nM)
Plainly stated, the numbers are log10 of Ki given in nM.

Guide cases for log10 of Ki, answers given:
C[C@H](NS(C)(=O)=O)c1ccc(S(=O)(=O)c2ccc(Cl)cc2Cc2ccc(Cl)cc2)cc1 :: 2.21
C[C@H](NS(C)(=O)=O)c1ccc(Cc2ccc(C(F)(F)F)cc2S(=O)(=O)c2ccccc2F)cc1 :: 0.00
C[C@H](NS(C)(=O)=O)c1ccc(S(=O)(=O)c2ccc(Cl)cc2C(=O)c2ccc(Cl)cc2)cc1 :: 2.28
COc1ccc(S(=O)(=O)c2cc(OC)ccc2Cc2ccc([C@H](C)NS(C)(=O)=O)cc2)cc1 :: -0.22
CC(NS(C)(=O)=O)c1ccc(C(=O)c2ccc(Cl)cc2S(=O)(=O)c2ccc(Cl)cc2)cc1 (stereo unspecified) :: 2.61
C[C@H](NS(C)(=O)=O)c1ccc(S(=O)(=O)c2ccc(Cl)cc2Nc2ccc(Cl)cc2)cc1 :: 2.44
C[C@H](NS(C)(=O)=O)c1ccc(Cc2ccc(OC(F)(F)F)cc2S(=O)(=O)c2ccccc2F)cc1 :: -0.40
CC(NS(C)(=O)=O)c1ccc(C(=O)c2ccc(OC(F)(F)F)cc2S(=O)(=O)c2ccccc2F)cc1 (stereo unspecified) :: 2.25

Noted log10 of Ki for COc1ccc(S(=O)(=O)c2ccc([C@H](C)NS(C)(=O)=O)cc2)c(S(=O)(=O)c2ccccc2)c1 , tested on Cannabinoid receptor 2 (Homo sapiens): -0.22

Noted log10 of Ki for C[C@H](NS(C)(=O)=O)c1ccc(S(=O)(=O)c2ccc(Cl)cc2S(=O)(=O)c2ccccc2F)cc1 , tested on Cannabinoid receptor 2 (Homo sapiens): 0.00

Noted log10 of Ki for C[C@H](NS(C)(=O)=O)c1ccc(S(=O)(=O)c2ccc(Cl)cc2S(=O)(=O)c2ccccc2Cl)cc1 , tested on Cannabinoid receptor 2 (Homo sapiens): 0.78

Noted log10 of Ki for C[C@H](NS(C)(=O)=O)c1ccc(Cc2ccc(C(F)(F)F)cc2S(=O)(=O)c2c(F)cccc2F)cc1 , tested on Cannabinoid receptor 2 (Homo sapiens): 0.26

Noted log10 of Ki for C[C@H](NS(C)(=O)=O)c1ccc(S(=O)(=O)c2ccc(Cl)cc2C(C)(O)c2ccc(Cl)cc2)cc1 (stereo partly specified) , tested on Cannabinoid receptor 2 (Homo sapiens): 2.36

Noted log10 of Ki for C[C@H](NS(C)(=O)=O)c1ccc(S(=O)(=O)c2ccc(OC3CCCC3)cc2S(=O)(=O)c2ccc(Cl)cc2)cc1 , tested on Cannabinoid receptor 2 (Homo sapiens): 2.37

Noted log10 of Ki for C[C@H](NS(C)(=O)=O)c1ccc(Cc2ccc(Cl)cc2S(=O)(=O)c2ccc(Cl)cc2)cc1 , tested on Cannabinoid receptor 2 (Homo sapiens): 0.83

Noted log10 of Ki for C[C@H](NS(C)(=O)=O)c1ccc(S(=O)(=O)c2ccc(C(F)(F)F)cc2S(=O)(=O)c2ccc(Cl)cc2)cc1 , tested on Cannabinoid receptor 2 (Homo sapiens): 0.90

Recorded values, source ChEMBL document CHEMBL1142746.
